Entry source: PubChem BioAssay (NCI)

# Test system: UACC-257 melanoma
# Test: NCI tumour cell line growth inhibition, 48 h
Can you tell me TGI for the items I'm about to list?

Lookup: // output TGI; input CC1=CCS(=O)(=O)C1C(O)C1=C(C)CCCC1(C)C (stereo unspecified) ; system UACC-257 melanoma
Found: > 100 µM

Lookup: State TGI on UACC-257 melanoma. Entry: C=C(C)[C@@H]1CC[C@@]2(C)[C@H]1[C@H]1CCC3[C@@]4(C)CC[C@H](O)C(C)(C)[C@@H]4CC[C@@]3(C)[C@]1(C)C[C@@H]2O (stereo partly specified)
Found: > 100 µM

Lookup: Enter recorded TGI with UACC-257 melanoma for "C[C@H](CS(C)(=O)=O)Nc1ncc2cc(Oc3ccc(F)cc3F)c(=O)n(C)c2n1" here.
Found: > 25 µM

Lookup: Give reported TGI for CCCCCCCCCCCC1N=C(N)NC(CCCO)=C1C(=O)OC (stereo unspecified) (UACC-257 melanoma)
Found: 11.7 µM

Lookup: Would you please give the reported TGI of "O=C(O)c1c[nH]cc1C(=O)O" with UACC-257 melanoma?
Found: > 100 µM

Lookup: Give reported TGI for CCOC(=O)C1(Cc2c[nH]c3ccccc23)C(O)CCCN1C(C)=O (stereo unspecified) (UACC-257 melanoma)
Found: > 100 µM

Lookup: Find the measured TGI of COC1OC(COC(=O)NCCCCC(=O)C(F)(F)F)C(O)C(O)C1O (stereo unspecified) with UACC-257 melanoma as test system.
Found: > 100 µM

Lookup: State measured TGI of the compound "CCOC(=O)c1cnn(-c2ccnc3c(C(F)(F)F)cccc23)c1N" with UACC-257 melanoma.
Found: > 100 µM

Lookup: Enter measured TGI, system UACC-257 melanoma, for the compound shown: "COc1ccc(CSc2nc3ccccc3nc2-c2cccs2)cc1"
Found: > 100 µM

Lookup: Provide TGI, system UACC-257 melanoma, entry CCN1C(=O)N(CC)C2C1NN=c1s/c(=C3\C(=O)N(C)c4ccccc43)c(=O)n12 (stereo unspecified)
Found: > 100 µM

Lookup: # return TGI for COC(=O)[C@@]12OC[C@]34C([C@@H](O)C1O)[C@@]1(C)CC(=O)C(O)=C(C)C1C[C@H]3OC(=O)[C@H](OC(=O)CC(C)C(F)(F)F)[C@H]42 (stereo partly specified) , test system: UACC-257 melanoma
Found: 0.547 µM

Lookup: Fill in TGI for O=C1CC2C(=O)N(Cc3ccccc3)C1C(S(=O)(=O)c1ccccc1)C2S(=O)(=O)c1ccccc1 (stereo unspecified) tested with UACC-257 melanoma.
Found: 3.25 µM

Lookup: Please report TGI with UACC-257 melanoma for item "Cc1cc(NS(=O)(=O)c2ccc(Nc3c4ccccc4nc4ccc(C(=O)Nc5ccc(S(=O)(=O)N=C(N)N)cc5)cc34)cc2)no1" .
Found: > 100 µM

Lookup: Report the value of TGI obtained on UACC-257 melanoma for "NCCCc1ccc2oc3ccccc3c2c1" .
Found: 32.1 µM

Lookup: # assay system UACC-257 melanoma: give TGI of "S=c1ssc(Sc2ccccn2)c1Cl"
Found: 57.9 µM

Lookup: For UACC-257 melanoma, give TGI of the listed compound: O=C1C(N=Nc2ccc(-c3nc4ccccc4o3)cc2)NC(=S)N1c1ccccc1 (stereo unspecified)
Found: > 100 µM

Lookup: Provide TGI, tested on UACC-257 melanoma, for "O=c1cccccc1NCCCCCCCCCNc1cccccc1=O" .
Found: 7.35 µM

Lookup: State measured TGI of the compound CCc1cc2c(cc1CCCC(=O)O)CC1(Cc3ccc(C(=O)O)cc3C1)C2 (stereo unspecified) with UACC-257 melanoma.
Found: > 100 µM

Lookup: Give TGI; test system UACC-257 melanoma; compound "NCc1ccc(-n2c(-c3nonc3N)nc3cnccc32)cc1"
Found: > 25 µM

Lookup: State the measured TGI (UACC-257 melanoma) of CCOC(=O)N1C2C=C(C)C(C3C(C)C(=O)N31)N(C(=O)c1ccccc1)O2 (stereo unspecified)
Found: > 100 µM

Lookup: Report value: TGI, system: UACC-257 melanoma, compound: "CN1CN(c2ccccc2)C2(CCN(CCCC(=O)c3cccs3)CC2)C1=O"
Found: 90.6 µM
